// data source = paper PMC5540273

# Lookup of reported %Inh keyed by entry
Test system: RSK1(Kin.Dom.2-C-terminal)
Construct: gene RPS6KA1
Details: concentration: 1 μM, replicates: in singlicate; n = 1;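 also: KINOMEscan kinase panel screen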
Give a bare numeral; the unit % is implied.

# annotated cases, reported %Inh shown
- COMPOUND: "Cl.Cl.NCC(NC(=O)c1cc(-c2ccccc2)c(-c2ccnc3[nH]ccc23)s1)c1ccccc1 (stereo not shown)"
  UNIT OF MEASURE: "%"
  %Inh: 62
- COMPOUND: "Cc1ccc(F)c(C(=O)Nc2cccc(-c3nn4ccccc4c3-c3ccnc(Nc4cccc(F)c4)n3)c2)c1F"
  UNIT OF MEASURE: "%"
  %Inh: 7
- COMPOUND: "Cl.NC(=O)c1cccc(Nc2nccc(Nc3ccc(Oc4c(Cl)cccc4Cl)c(Cl)c3)n2)c1"
  UNIT OF MEASURE: "%"
  %Inh: 0

Let us move to another entry and its %Inh.
Inquiry: Field: %Inh (RSK1(Kin.Dom.2-C-terminal)). Entry: COc1ccc(Nc2nccc(N3CCC(NC(=O)Nc4cccc(OC)c4)C3)n2)cc1 (stereo not shown)
Reply text: 0

====

System: FYN
Conditions: concentration: 1 μM, replicates: in singlicate; n = 1
Cut-off 30% on %Inh: below means Satisfied, at or above means Not satisfied.

Observe how each entry below is paired with its result.
- COMPOUND: "COC(=O)Nc1nc2ccc(Oc3ccc(NC(=O)Nc4cc(C(F)(F)F)ccc4F)cc3)cc2n1C.Cl"
  CLASS LABEL: "Satisfied"
- COMPOUND: "COCCOCCOc1cc2ncc3c4ccc(C#N)cc4[nH]c3c2cc1OC"
  CLASS LABEL: "Satisfied"
- COMPOUND: "Cc1ccc(C(=O)N2CC[C@@H](O)C2)cc1-n1c(C)cc(OCc2ccc(F)cc2F)c(Br)c1=O"
  CLASS LABEL: "Satisfied"
- COMPOUND: "CC(=O)Nc1nc2cnc(Nc3cc(NC(=O)c4cccc(C5(C#N)CC5)c4Cl)ccc3C)nc2s1"
  CLASS LABEL: "Not satisfied"
- COMPOUND: "c1ccc(Oc2ccc(Nc3ccnc4cc(-c5ccc(CNCCN6CCOCC6)o5)ccc34)cc2)nc1"
  CLASS LABEL: "Not satisfied"
- COMPOUND: "O=C(NC1CCN(c2ccnc(Nc3ccc(F)cc3)n2)C1)c1cc2ccccc2s1 (stereo not shown)"
  CLASS LABEL: "Satisfied"

Inquiry: Please check: %Inh for Nc1ncc(-c2cccnc2)c2scc(-c3ccc4c(c3)CCN4C(=O)Cc3ccccc3)c12 , strictly under 30% or not?
Reply text: Not satisfied

Inquiry: Same question for COc1cc(Nc2nccc(-c3c(-c4cccc(NC(=O)c5c(F)cccc5F)c4)nn4ccccc34)n2)cc(OC)c1OC please.
Reply text: Satisfied

Inquiry: Same question for Cl.Cl.NCC(NC(=O)c1cc(-c2ccccc2)c(-c2ccnc3[nH]ccc23)s1)c1ccccc1 (stereo not shown) please.
Reply text: Not satisfied

Inquiry: Same question for COc1ccc(Nc2nccc(N3CCC(NC(=O)Nc4cccc(OC)c4)C3)n2)cc1 (stereo not shown) please.
Reply text: Satisfied

Inquiry: Same question for Cl.Cl.NCC(NCc1ccc(-c2ccnc3[nH]ccc23)s1)c1ccccc1 (stereo not shown) please.
Reply text: Satisfied

Inquiry: Same question for CN1CCN(Cc2cccc(-c3ccc4c(Nc5ccc(Oc6ccccc6)cc5)ccnc4c3)c2)CC1 please.
Reply text: Not satisfied

Inquiry: Same question for CC(C)(C)c1ccc2nccc(Nc3cccc(O)c3)c2c1 please.
Reply text: Not satisfied

Inquiry: Same question for Cn1cc(-c2ccc3c(c2)CCN3C(=O)Cc2cccc(Cl)c2)c2c(N)ncnc21 please.
Reply text: Satisfied

Inquiry: Same question for CC(=O)N1CCN(c2ccc(Nc3nccc(-c4sc(C(C)C)nc4-c4cccc(NS(=O)(=O)c5cccc(Cl)c5)c4)n3)cn2)CC1 please.
Reply text: Not satisfied
